# System: ZEAMX (Corn)
# EXPERIMENT SUMMARY: Leaf treatment test, corn
# Assay type: in vivo, Zea mays L.
# SETUP CONDITIONS: treated amount 0.1 kg/ha, 14 days after treatment
The entries below come with measured degree of damage to the plants (% damage) values attached.
Give just the number in %; leave the unit off.

Worked examples, 6 molecules total:
Cc1ccc(F)c(N(C)C(=O)C(C)Oc2ccc(Oc3nc4ccc(Cl)cc4o3)cc2)c1 (stereo not shown) = 0
COc1ccc(N(C)C(=O)C(C)Oc2ccc(Oc3nc4ccc(Cl)cc4o3)cc2)c(F)c1 (stereo not shown) = 0
Cc1ccc(N(C)C(=O)C(C)Oc2ccc(Oc3nc4ccc(Cl)cc4o3)cc2)c(F)c1 (stereo not shown) = 0
CC(Oc1ccc(Oc2nc3ccc(Cl)cc3o2)cc1)C(=O)N(C)c1ccc(F)cc1F (stereo not shown) = 30
CC(Oc1ccc(Oc2nc3ccc(Cl)cc3o2)cc1)C(=O)N(C)c1c(F)ccc(F)c1F (stereo not shown) = 100
CC(Oc1ccc(Oc2nc3ccc(Cl)cc3o2)cc1)C(=O)N(C)c1ccc(Cl)cc1F (stereo not shown) = 0

I'm curious: which degree of damage to the plants (% damage) was measured for CCOc1ccc(N(C)C(=O)C(C)Oc2ccc(Oc3nc4ccc(Cl)cc4o3)cc2)c(F)c1 (stereo not shown) tested on ZEAMX (Corn)?
0

Okay, and CC(Oc1ccc(Oc2nc3ccc(Cl)cc3o2)cc1)C(=O)N(C)c1ccccc1F (stereo not shown) ?
70

Okay, and CC(Oc1ccc(Oc2nc3ccc(Cl)cc3o2)cc1)C(=O)N(C)c1c(F)cccc1F (stereo not shown) ?
40

Okay, and CC(Oc1ccc(Oc2nc3ccc(Cl)cc3o2)cc1)C(=O)Nc1ccccc1F (stereo not shown) [control 1, reference compound] ?
100

Okay, and CC(Oc1ccc(Oc2nc3ccc(Cl)cc3o2)cc1)C(=O)N(C)c1cc(F)ccc1F (stereo not shown) ?
0

Okay, and CCN(C(=O)C(C)Oc1ccc(Oc2nc3ccc(Cl)cc3o2)cc1)c1ccccc1F (stereo not shown) ?
10

Okay, and CC(Oc1ccc(Oc2nc3ccc(Cl)cc3o2)cc1)C(=O)N(C)c1cc(F)c(F)cc1F (stereo not shown) ?
0

----------
# System: ECHCG (Barnyard grass)
# EXPERIMENT SUMMARY: Leaf treatment test, barnyard grass
# Format: in vivo, Echinochloa crus-galli Beauv. var. caudata Kitagawa
# SETUP CONDITIONS: treated amount 0.1 kg/ha, leaf treatment at three leaves, 14 days after treatment
QUANTITY KIND: degree of damage to the plants (% damage) (%)
Give just the number in %; leave the unit off.

Cc1ccc(F)c(N(C)C(=O)C(C)Oc2ccc(Oc3nc4ccc(Cl)cc4o3)cc2)c1 (stereo not shown) = 40
Cc1ccc(N(C)C(=O)C(C)Oc2ccc(Oc3nc4ccc(Cl)cc4o3)cc2)c(F)c1 (stereo not shown) = 0

Item CC(Oc1ccc(Oc2nc3ccc(Cl)cc3o2)cc1)C(=O)N(C)c1ccc(F)cc1F (stereo not shown) has what recorded degree of damage to the plants (% damage)?
100

Okay, and CC(Oc1ccc(Oc2nc3ccc(Cl)cc3o2)cc1)C(=O)Nc1ccccc1F (stereo not shown) [control 1, reference compound] ?
100

----------
# System: ECHCG (Barnyard grass)
# EXPERIMENT SUMMARY: Leaf treatment test, barnyard grass
# Type: in vivo, Echinochloa crus-galli Beauv. var. caudata Kitagawa
# SETUP CONDITIONS: treated amount 0.025 kg/ha, leaf treatment at three leaves, 14 days after treatment
Short version: degree of damage to the plants (% damage) at least 20% is 1.0, less is 0.0.

Example results:
CC(Oc1ccc(Oc2nc3ccc(Cl)cc3o2)cc1)C(=O)N(C)c1ccc(Cl)cc1F (stereo not shown) = 0.0
Cc1ccc(N(C)C(=O)C(C)Oc2ccc(Oc3nc4ccc(Cl)cc4o3)cc2)c(F)c1 (stereo not shown) = 0.0
CC(Oc1ccc(Oc2nc3ccc(Cl)cc3o2)cc1)C(=O)Nc1ccccc1F (stereo not shown) [control 1, reference compound] = 1.0
CC(Oc1ccc(Oc2nc3ccc(Cl)cc3o2)cc1)C(=O)N(C)c1cc(F)ccc1F (stereo not shown) = 1.0
CC(Oc1ccc(Oc2nc3ccc(Cl)cc3o2)cc1)C(=O)N(C)c1ccc(F)cc1F (stereo not shown) = 0.0

State whether the measured degree of damage to the plants (% damage) reaches 20%, counting equality as reaching it, for CC(Oc1ccc(Oc2nc3ccc(Cl)cc3o2)cc1)C(=O)N(C)c1ccccc1F (stereo not shown)
1.0

Okay, and CC(Oc1ccc(Oc2nc3ccc(Cl)cc3o2)cc1)C(=O)N(C)c1cc(F)c(F)cc1F (stereo not shown) ?
0.0

----------
# System: GLXMA (Soy bean)
# EXPERIMENT SUMMARY: Leaf treatment test, soy bean
# Format: in vivo, Glycine max (L.) MERR
# SETUP CONDITIONS: treated amount 0.025 kg/ha, 14 days after treatment
The entries below come with measured degree of damage to the plants (% damage) values attached.
Give just the number in %; leave the unit off.

CCN(C(=O)C(C)Oc1ccc(Oc2nc3ccc(Cl)cc3o2)cc1)c1ccccc1F (stereo not shown) = 0

Item CCOc1ccc(N(C)C(=O)C(C)Oc2ccc(Oc3nc4ccc(Cl)cc4o3)cc2)c(F)c1 (stereo not shown) has what recorded degree of damage to the plants (% damage)?
0

Okay, and Cc1ccc(F)c(N(C)C(=O)C(C)Oc2ccc(Oc3nc4ccc(Cl)cc4o3)cc2)c1 (stereo not shown) ?
0

Okay, and CC(Oc1ccc(Oc2nc3ccc(Cl)cc3o2)cc1)C(=O)N(C)c1cc(F)ccc1F (stereo not shown) ?
0

Okay, and CC(Oc1ccc(Oc2nc3ccc(Cl)cc3o2)cc1)C(=O)N(C)c1ccc(F)cc1F (stereo not shown) ?
0

Okay, and CC(Oc1ccc(Oc2nc3ccc(Cl)cc3o2)cc1)C(=O)N(C)c1ccc(Cl)cc1F (stereo not shown) ?
0

Okay, and Cc1ccc(N(C)C(=O)C(C)Oc2ccc(Oc3nc4ccc(Cl)cc4o3)cc2)c(F)c1 (stereo not shown) ?
0

Okay, and CC(Oc1ccc(Oc2nc3ccc(Cl)cc3o2)cc1)C(=O)N(C)c1c(F)ccc(F)c1F (stereo not shown) ?
0

Okay, and CC(Oc1ccc(Oc2nc3ccc(Cl)cc3o2)cc1)C(=O)N(C)c1cc(F)c(F)cc1F (stereo not shown) ?
0

----------
# System: PANDI (Fall panicum)
# EXPERIMENT SUMMARY: Leaf treatment test, fall panicum
# Format: in vivo, Panicum dichotomiflorum Michx
# SETUP CONDITIONS: treated amount 0.1 kg/ha, 14 days after treatment
The entries below come with measured degree of damage to the plants (% damage) values attached.
Give just the number in %; leave the unit off.

Cc1ccc(N(C)C(=O)C(C)Oc2ccc(Oc3nc4ccc(Cl)cc4o3)cc2)c(F)c1 (stereo not shown) = 0
Cc1ccc(F)c(N(C)C(=O)C(C)Oc2ccc(Oc3nc4ccc(Cl)cc4o3)cc2)c1 (stereo not shown) = 100
CC(Oc1ccc(Oc2nc3ccc(Cl)cc3o2)cc1)C(=O)Nc1ccccc1F (stereo not shown) [control 1, reference compound] = 100
CC(Oc1ccc(Oc2nc3ccc(Cl)cc3o2)cc1)C(=O)N(C)c1ccc(Cl)cc1F (stereo not shown) = 0
CC(Oc1ccc(Oc2nc3ccc(Cl)cc3o2)cc1)C(=O)N(C)c1c(F)cccc1F (stereo not shown) = 100
CC(Oc1ccc(Oc2nc3ccc(Cl)cc3o2)cc1)C(=O)N(C)c1cc(F)c(F)cc1F (stereo not shown) = 0
CCN(C(=O)C(C)Oc1ccc(Oc2nc3ccc(Cl)cc3o2)cc1)c1ccccc1F (stereo not shown) = 100
CC(Oc1ccc(Oc2nc3ccc(Cl)cc3o2)cc1)C(=O)N(C)c1ccc(F)cc1F (stereo not shown) = 80

# next compound below
Item CC(Oc1ccc(Oc2nc3ccc(Cl)cc3o2)cc1)C(=O)N(C)c1c(F)ccc(F)c1F (stereo not shown) has what recorded degree of damage to the plants (% damage)?
100

----------
# Test system: TRZAW (Wheat)
# EXPERIMENT SUMMARY: Leaf treatment test, wheat
# Format: in vivo, Triticum aestivum L.
# SETUP CONDITIONS: treated amount 0.4 kg/ha, 14 days after treatment
QUANTITY KIND: degree of damage to the plants (% damage) (%)
Give just the number in %; leave the unit off.

Worked examples, 3 compounds total:
CCOc1ccc(N(C)C(=O)C(C)Oc2ccc(Oc3nc4ccc(Cl)cc4o3)cc2)c(F)c1 (stereo not shown) = 0
COc1ccc(N(C)C(=O)C(C)Oc2ccc(Oc3nc4ccc(Cl)cc4o3)cc2)c(F)c1 (stereo not shown) = 0
CC(Oc1ccc(Oc2nc3ccc(Cl)cc3o2)cc1)C(=O)N(C)c1cc(F)c(F)cc1F (stereo not shown) = 0

# next compound below
Item CC(Oc1ccc(Oc2nc3ccc(Cl)cc3o2)cc1)C(=O)N(C)c1ccccc1F (stereo not shown) has what recorded degree of damage to the plants (% damage)?
0

----------
The entries below come with measured degree of damage to the plants (% damage) values attached.
# System: ECHCG (Barnyard grass)
# EXPERIMENT SUMMARY: Leaf treatment test, barnyard grass
# Assay type: in vivo, Echinochloa crus-galli Beauv. var. caudata Kitagawa
# SETUP CONDITIONS: treated amount 0.1 kg/ha, leaf treatment at three leaves, 14 days after treatment
Give just the number in %; leave the unit off.

Worked examples, 4 compounds total:
CCN(C(=O)C(C)Oc1ccc(Oc2nc3ccc(Cl)cc3o2)cc1)c1ccccc1F (stereo not drawn) = 80
COc1ccc(N(C)C(=O)C(C)Oc2ccc(Oc3nc4ccc(Cl)cc4o3)cc2)c(F)c1 (stereo not drawn) = 0
CC(Oc1ccc(Oc2nc3ccc(Cl)cc3o2)cc1)C(=O)N(C)c1cc(F)ccc1F (stereo not drawn) = 80
CC(Oc1ccc(Oc2nc3ccc(Cl)cc3o2)cc1)C(=O)N(C)c1ccc(Cl)cc1F (stereo not drawn) = 0

Item CC(Oc1ccc(Oc2nc3ccc(Cl)cc3o2)cc1)C(=O)N(C)c1c(F)cccc1F (stereo not drawn) has what recorded degree of damage to the plants (% damage)?
95

Okay, and CC(Oc1ccc(Oc2nc3ccc(Cl)cc3o2)cc1)C(=O)N(C)c1cc(F)c(F)cc1F (stereo not drawn) ?
60

Okay, and CCOc1ccc(N(C)C(=O)C(C)Oc2ccc(Oc3nc4ccc(Cl)cc4o3)cc2)c(F)c1 (stereo not drawn) ?
0

Okay, and CC(Oc1ccc(Oc2nc3ccc(Cl)cc3o2)cc1)C(=O)N(C)c1ccccc1F (stereo not drawn) ?
100

Okay, and CC(Oc1ccc(Oc2nc3ccc(Cl)cc3o2)cc1)C(=O)N(C)c1c(F)ccc(F)c1F (stereo not drawn) ?
100
